- STUDY_SYSTEM: wild-type Epidermal Growth Factor Receptor (EGFR) (Homo sapiens (Human), UniProt P00533)
- Sequence (P00533 669-1210): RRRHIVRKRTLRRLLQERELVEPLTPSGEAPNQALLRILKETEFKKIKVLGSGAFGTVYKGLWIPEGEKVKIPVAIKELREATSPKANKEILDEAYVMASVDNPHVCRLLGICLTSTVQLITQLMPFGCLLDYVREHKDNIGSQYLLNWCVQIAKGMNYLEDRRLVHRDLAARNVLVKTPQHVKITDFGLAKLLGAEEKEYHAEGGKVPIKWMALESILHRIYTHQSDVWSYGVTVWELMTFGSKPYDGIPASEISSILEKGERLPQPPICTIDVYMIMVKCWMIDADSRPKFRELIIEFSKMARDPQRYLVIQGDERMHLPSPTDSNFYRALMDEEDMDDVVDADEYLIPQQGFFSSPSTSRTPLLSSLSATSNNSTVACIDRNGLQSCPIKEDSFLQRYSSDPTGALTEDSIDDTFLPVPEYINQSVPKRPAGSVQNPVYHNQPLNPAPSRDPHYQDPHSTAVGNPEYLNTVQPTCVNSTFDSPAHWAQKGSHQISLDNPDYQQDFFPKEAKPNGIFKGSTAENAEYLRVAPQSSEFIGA
- PROTOCOL_DETAILS: WT-EGFR Kinase Assay (TR-FRET, 2 mM ATP)
- Type: biochemical
- CONDITION_DETAILS: read-out: EGFR Wildtyp- 2 mM ATP IC50 [mol/l] (median)
ENDPOINT_NAME: pIC50
A value of pIC50 is the negative decimal logarithm of a concentration given in moles per litre.

pIC50 recorded for this compound, CN1CCc2[nH]c(-c3ccnc(NC(=O)Cc4ccc(C(F)(F)F)cc4)c3)c(Nc3ccccc3)c2C1=O , is 5.07

pIC50 recorded for this compound, CN(C)CCC(C(=O)Nc1cc(-c2[nH]c3c(c2Nc2ccccc2)C(=O)N(C)CC3)ccn1)c1ccccc1 (centres unmarked) , is 5.17

----------
Each record here notes measured pIC50.
- STUDY_SYSTEM: human CSNK1A1 (Homo sapiens (Human), UniProt P48729)
- Sequence (P48729 whole entry): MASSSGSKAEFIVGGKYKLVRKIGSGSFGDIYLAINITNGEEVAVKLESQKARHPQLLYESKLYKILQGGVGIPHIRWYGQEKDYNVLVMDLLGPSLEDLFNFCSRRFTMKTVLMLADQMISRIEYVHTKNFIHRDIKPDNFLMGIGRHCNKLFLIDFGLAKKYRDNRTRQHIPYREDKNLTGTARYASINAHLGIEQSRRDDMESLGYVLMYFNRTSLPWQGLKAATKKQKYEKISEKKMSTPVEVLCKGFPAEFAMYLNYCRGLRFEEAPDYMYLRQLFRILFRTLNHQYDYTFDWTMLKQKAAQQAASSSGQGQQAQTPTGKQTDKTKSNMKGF
- PROTOCOL_DETAILS: CSNK1A1 High ATP Assay (ADP-Glo, 1 mM ATP)
- Format: biochemical
- CONDITION_DETAILS: read-out: CSNK1A1 high ATP assay IC50 [mol/l] (median)
A value of pIC50 is the negative decimal logarithm of a concentration given in moles per litre.

{"columns": ["COMPOUND", "STUDY_SYSTEM", "pIC50"],
 "data": [
  ["O=C(Cc1ccc(F)cc1)Nc1cc(-c2[nH]c3c(c2Nc2ccccc2)C(=O)N(C2CC2)CC3)ccn1", "human CSNK1A1 (Homo sapiens (Human), UniProt P48729)", 6.97],
  ["CC(C(=O)Nc1cc(-c2[nH]c3c(c2Nc2ccccc2)C(=O)N(C)CC3)ccn1)c1ccncc1 (single isomer, unassigned) [Example 74]", "human CSNK1A1 (Homo sapiens (Human), UniProt P48729)", 6.22],
  ["CN1CCc2[nH]c(-c3ccnc(NC(=O)Cc4ccccn4)c3)c(Nc3ccccc3)c2C1=O", "human CSNK1A1 (Homo sapiens (Human), UniProt P48729)", 6.61]
]}

pIC50 recorded for this compound, Cc1ccccc1Nc1c(-c2ccnc(NC(=O)C(C)c3ccc(F)cc3)c2)[nH]c2c1C(=O)NC(C)(C)C2 (single isomer, unassigned; enantiomer 2) [Example 134] , is 6.52

pIC50 recorded for this compound, CN1CCc2[nH]c(-c3ccnc(NC(=O)C(CC(F)F)c4ccc(F)cc4)c3)c(Nc3ccccc3)c2C1=O (racemic) [Example 61] , is 7.66

pIC50 recorded for this compound, CN1CCc2[nH]c(-c3ccnc(NC(=O)Cc4ccc(C(F)(F)F)cc4)c3)c(Nc3ccccc3)c2C1=O , is 7.47

pIC50 recorded for this compound, CC(C(=O)Nc1cc(-c2[nH]c3c(c2Nc2ccccc2)C(=O)N(C)C2(CCC2)C3)ccn1)c1ccc(F)cc1 (single isomer, unassigned; enantiomer 2) [Example 159] , is 6.66

pIC50 recorded for this compound, CN1C(=O)c2c([nH]c(-c3ccnc(NC(=O)C(CC(F)F)c4ccc(F)cc4)c3)c2Nc2ccccc2)CC12CCC2 (racemic) [Example 160] , is 7.57

pIC50 recorded for this compound, CN(C)CCCC(C(=O)Nc1cc(-c2[nH]c3c(c2Nc2ccccc2)C(=O)N(C)CC3)ccn1)c1ccccc1 (single isomer, unassigned; (+)) [Example 60] , is 6.36

pIC50 recorded for this compound, CC1Cc2[nH]c(-c3ccnc(NC(=O)C(CC(F)F)c4ccc(F)cc4)c3)c(Nc3ccccc3F)c2C(=O)N1C (single isomer, unassigned; (+)) [Example 103] , is 6.57

pIC50 recorded for this compound, CN1CCc2[nH]c(-c3ccnc(NC(=O)C(CCN4CCOCC4)c4ccccc4)c3)c(Nc3ccccc3)c2C1=O (stereo not shown) [Example 30] , is 6.31

pIC50 recorded for this compound, CN1CCc2[nH]c(-c3ccnc(NC(=O)C(CCN4CCOCC4)c4ccccc4)c3)c(Nc3ccccc3)c2C1=O (single isomer, unassigned) [Example 32] , is 5.34

pIC50 recorded for this compound, CN1C(=O)c2c([nH]c(-c3ccnc(NC(=O)Cc4ccc(F)cc4)c3)c2Nc2ccccc2)CC1(C)C , is 6.17
